# test-details: Metabolic stability assessed as half life in Sclerotina sclerotiorum at 0.03 mM
# Assay type: ADME, organism-based
# conditions-used: sclerotinia sclerotiorum, Sclerotinia sclerotiorum (whole organism)
outcome-measure: half-life at 30 µM

Which half-life at 30 µM value is on record for "CSC(=S)NCc1cc2ccccc2o1" ?
360 min

---

# System: Sclerotinia sclerotiorum
# test-details: Antifungal activity against Sclerotina sclerotiorum assessed as growth inhibition at 0.10 mM after 48 hrs
# Assay type: functional
I'd appreciate it if you could supply inhibition at 100 µM values for the items below.
Just the number in %, nothing appended.

Need inhibition at 100 µM, item "c1ccc2[nH]c(-c3cscn3)nc2c1"
86

Query (compound): "c1ccc(-c2coc3ccccc23)cc1" ; field requested: inhibition at 100 µM
32

Give the measured inhibition at 100 µM of "CSC(=S)NCc1c[nH]c2ccccc12" .
37

Return reported inhibition at 100 µM; argument: "c1ccc2c(-c3nccs3)c[nH]c2c1"
100

Given "c1ccc(-c2c[nH]c3ccccc23)cc1" , state its recorded inhibition at 100 µM.
100

Give its inhibition at 100 µM value. Item: "CSC(=S)NCc1csc2ccccc12"
10

Request the reported inhibition at 100 µM associated with "Fc1ccc2[nH]cc(-c3nccs3)c2c1"
70

If you can, please state the reported inhibition at 100 µM value of "CSC(=S)NCc1cc2ccccc2[nH]1" .
48

Quick one: inhibition at 100 µM for "CSC(=S)NCc1cc2ccccc2o1" ?
32

Given the entry "Fc1ccc2c(-c3ccccc3)c[nH]c2c1" , report its measured inhibition at 100 µM.
93

---

# Tested on: Sclerotinia sclerotiorum
# test-details: Antifungal activity against Sclerotina sclerotiorum assessed as growth inhibition at 0.05 mM after 48 hrs
# Format: functional
Please respond with reported inhibition at 50 µM for every item in the list.
Please state the figure in %; there is no need to write the unit.

Which inhibition at 50 µM is listed for "Fc1ccc2c(-c3ccccc3)c[nH]c2c1" ?
87

I'd like to know its inhibition at 50 µM. The compound in question is "Fc1cccc2[nH]cc(-c3ccccc3)c12"
100

Entry under review: "c1ccc2c(-c3nccs3)c[nH]c2c1" . Reported inhibition at 50 µM?
81

Using the record for "c1ccc(-c2c[nH]c3ccccc23)cc1" , report its inhibition at 50 µM.
93

Recorded inhibition at 50 µM for "Fc1ccc2[nH]cc(-c3nccs3)c2c1" , please?
61

---

# test-details: Metabolic stability assessed as half life in Sclerotina sclerotiorum at less than 0.01 mM
# Format: ADME, organism-based
# conditions-used: sclerotinia sclerotiorum, Sclerotinia sclerotiorum (whole organism)
outcome-measure: half-life (h)
Could you give me the number in h? Just the number is fine.

# query: half-life of entry "CSC(=S)NCc1cc2ccccc2[nH]1"
2

---

# Tested on: Sclerotinia sclerotiorum
# test-details: Inhibition of Sclerotina sclerotiorums brassinin glucosyl transferase assessed as specific activity at 0.30 mM
Field: Activity (10^-10.mol/mg/min). Provide a value for each of the molecules that follow.
Give your answer as a number; write no unit.

What value of Activity (10^-10.mol/mg/min) on Sclerotinia sclerotiorum does "COc1ccn2ncc(CNC(=S)SC)c2c1" have?
1.47

Notebook entry, Sclerotinia sclerotiorum assay: Activity (10^-10.mol/mg/min) of CSC(=S)NCc1cc2ccccc2[nH]1 [ISOBRASSININ] = ?
0.63

Lab note: need Activity (10^-10.mol/mg/min) with Sclerotinia sclerotiorum for entry "c1ccc(-c2cc3ccccc3[nH]2)cc1" , please look it up.
0.59

Which Activity (10^-10.mol/mg/min) is reported with Sclerotinia sclerotiorum for this entry: "CSC(=S)NCc1csc2ccccc12" ?
1.22

Find Activity (10^-10.mol/mg/min) (Sclerotinia sclerotiorum) for the entry c1ccc2c(-c3nccs3)c[nH]c2c1 [CAMALEXIN]
0.95

Form field: Activity (10^-10.mol/mg/min) recorded for "CSC(=S)NCc1cc2ccccc2o1" with Sclerotinia sclerotiorum (enter value)
0.64

# query: Activity (10^-10.mol/mg/min) | item "COC(=O)c1cnn2ccc(OC)cc12" | system: Sclerotinia sclerotiorum
1.51

---

# Test system: Sclerotinia sclerotiorum
# test-details: Inhibition of Sclerotina sclerotiorums brassinin glucosyl transferase assessed as specific activity at 0.30 mM
Label rule, in plain words: Activity (10^-10.mol/mg/min) of 0.8 and up is Y, under 0.8 is N.

Identify whether the reported Activity (10^-10.mol/mg/min) of the following compound is 0.8 or greater: "Fc1ccc2c(-c3nccs3)c[nH]c2c1"
Y

# check: Activity (10^-10.mol/mg/min) of "Fc1cccc2[nH]cc(-c3ccccc3)c12" is greater than or equal to 0.8
N

Has "CSC(=S)NCc1coc2ccccc12" a recorded Activity (10^-10.mol/mg/min) greater than or equal to 0.8?
N

I'd appreciate it if you could say whether "Fc1ccc2c(-c3ccccc3)c[nH]c2c1" has Activity (10^-10.mol/mg/min) at least equal to 0.8.
N

Textbook exercise: given the entry "CC(=O)Nc1cnc2ccccc2c1" , state whether its Activity (10^-10.mol/mg/min) is greater than or equal to 0.8.
Y

Kindly determine if Activity (10^-10.mol/mg/min) recorded for "c1ccc(-c2c[nH]c3ccccc23)cc1" is above or exactly 0.8.
N

Decide: is the reported value of Activity (10^-10.mol/mg/min) for "CSC(=S)NCc1c[nH]c2ncccc12" equal to or greater than 0.8?
Y

---

Exercise: state measured Activity (10^-10.mol/mg/min) for each of the molecules provided.
# System: Sclerotinia sclerotiorum
# test-details: Inhibition of Sclerotina sclerotiorums brassinin glucosyl transferase assessed as specific activity at 0.60 mM
Write no unit; give the number alone.

Can you share its Activity (10^-10.mol/mg/min)? I mean this molecule: "c1ccc(-c2c[nH]c3ccccc23)cc1"
0.19

What does the record list as Activity (10^-10.mol/mg/min) for "CC(=O)Nc1cnc2ccccc2c1" ?
1.53

# lookup: Activity (10^-10.mol/mg/min) of "COC(=O)c1cnn2ccc(OC)cc12"
1.49

Reported Activity (10^-10.mol/mg/min) for "Fc1ccc2[nH]cc(-c3nccs3)c2c1" : what is it?
0.72

Given "Fc1ccc2c(-c3nccs3)c[nH]c2c1" , state its recorded Activity (10^-10.mol/mg/min).
1

Need Activity (10^-10.mol/mg/min), item "COc1ccn2ncc(CNC(=S)SC)c2c1"
1.48

Give the measured Activity (10^-10.mol/mg/min) of "CSC(=S)NCc1cc2ccccc2[nH]1" .
0.41

Record request: Activity (10^-10.mol/mg/min) value, item "CSC(=S)NCc1coc2ccccc12"
0.55

Entry under review: "Fc1cccc2[nH]cc(-c3ccccc3)c12" . Reported Activity (10^-10.mol/mg/min)?
0.43

If you can, please state the reported Activity (10^-10.mol/mg/min) value of "c1ccc2c(-c3nccs3)c[nH]c2c1" .
0.84

Recorded Activity (10^-10.mol/mg/min) of "c1ccc(-c2cc3ccccc3[nH]2)cc1" , please.
0.59

What value of Activity (10^-10.mol/mg/min) has been recorded for this entry: "CSC(=S)NCc1c[nH]c2ncccc12"
0.75
